Values were extracted from paper PMC8222333.

Molecular target: d-enCas12a-Ultra (Acidaminococcus sp., UniProt U2UMQ6 1-1307, E174R;S542R;K548R;M537R;F870L;D908A;E993A;D1235A)
Assay: Spec-seq (native PAGE EMSA with sequencing of bound and unbound); 25 mM Tris-HCl pH 7.4, 150 mM KCl, 5 mM MgCl2, 10% glycerol, 1 mM DTT, 40 ng/uL salmon sperm DNA; 400 nM Cas12a, 480 nM crRNA, 50 nM library, 37 C 1 h; native PAGE at room temperature; high values mean tight binding;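 note: relative affinity from the bound to unbound sequence frequency ratio in Spec-seq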
Conditions: protein: recombinant
measurement_name: binding signal (lnKA)
Kindly provide the numeric value in lnKA only, without the unit symbol.

Report binding signal for CATT (dsDNA) DNA 1: GCTATCTAGTGCTCAGTACGCACTGCATTAGGAAACTTCTGGCAGGACCAGGTCATGAGATCGGAAGAGCACACGTCTGAACTCCAGTCA DNA 2: TGACTGGAGTTCAGACGTGTGCTCTTCCGATCTCATGACCTGGTCCTGCCAGAAGTTTCCTAATGCAGTGCGTACTGAGCACTAGATAGC RNA: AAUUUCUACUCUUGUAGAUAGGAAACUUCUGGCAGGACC please.
-2.95

Here is another binder to look at.
Report binding signal for CATA (dsDNA) DNA 1: GCTATCTAGTGCTCAGTACGCACTGCATAAGGAAACTTCTGGCAGGACCAGGTCATGAGATCGGAAGAGCACACGTCTGAACTCCAGTCA DNA 2: TGACTGGAGTTCAGACGTGTGCTCTTCCGATCTCATGACCTGGTCCTGCCAGAAGTTTCCTTATGCAGTGCGTACTGAGCACTAGATAGC RNA: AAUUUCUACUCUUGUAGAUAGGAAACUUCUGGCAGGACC please.
-0.95
